The entries below are paired with their reported protein stability index.
B1: IFRG15 (parent)
chain: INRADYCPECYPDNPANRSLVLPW

variants of: B1; assay: protein stability index of a GFP-peptide fusion (GPS, HEK-293T) (PSI 1-6); higher = more stable; conditions: c terminus: a fixed tail appended;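 note: lentivirally expressed fusions sorted by FACS into six bins by GFP to DsRed ratio, PSI derived from sequencing read proportions per bin multiplied by bin number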

seq string: INRADYCPEWYPDNPANRSLVLPW
protein stability index: 2.07
--
seq string: INRADYCPECYPDNPANRPLVLPW
protein stability index: 2.4
--
seq string: INRADYCPECYPDNPWNRSLVLPW
protein stability index: 1.85
--
seq string: INRADYCPECYPDNPANRVLVLPW
protein stability index: 1.41
--
seq string: INSADYCPECYPDNPANRSLVLPW
protein stability index: 2.2
--
seq string: INRADYCEECYPDNPANRSLVLPW
protein stability index: 2.34
--
seq string: MNRADYCPECYPDNPANRSLVLPW
protein stability index: 2.38
--
seq string: INFADYCPECYPDNPANRSLVLPW
protein stability index: 2.12
--
seq string: YNRADYCPECYPDNPANRSLVLPW
protein stability index: 1.49
--
seq string: INRADYEPECYPDNPANRSLVLPW
protein stability index: 2.5
--
seq string: INRADYCPECYPDNPANRSLVYPW
protein stability index: 2.17
--
seq string: INRADYCPECYPDNPLNRSLVLPW
protein stability index: 1.86
--
seq string: INRADYCPECYPDNPDNRSLVLPW
protein stability index: 2.37
--
seq string: INRADYCPECVPDNPANRSLVLPW
protein stability index: 2.8
--
seq string: INRADYCPECYPDNPCNRSLVLPW
protein stability index: 1.69
--
seq string: INRADYCLECYPDNPANRSLVLPW
protein stability index: 1.85
--
seq string: INRWDYCPECYPDNPANRSLVLPW
protein stability index: 1.68
--
seq string: HNRADYCPECYPDNPANRSLVLPW
protein stability index: 2.44
--
seq string: INRADYCPECYPDNPANRSLVLPC
protein stability index: 2.31
--
seq string: INRADYCPPCYPDNPANRSLVLPW
protein stability index: 3.15
--
seq string: INRADYCPECYPDNEANRSLVLPW
protein stability index: 2.58
--
seq string: INRADYCPECYDDNPANRSLVLPW
protein stability index: 2.7
--
seq string: INRADYCPECYPDNPANRSLVLQW
protein stability index: 1.87
--
seq string: INRADYCPECYPHNPANRSLVLPW
protein stability index: 2.07
--
seq string: INRADYCPTCYPDNPANRSLVLPW
protein stability index: 1.86
--
seq string: INRADYCPNCYPDNPANRSLVLPW
protein stability index: 1.92
--
seq string: INRADYWPECYPDNPANRSLVLPW
protein stability index: 1.43
--
seq string: INRADYCPECYPDDPANRSLVLPW
protein stability index: 2.52
--
seq string: INRADYCPECYPDNPANRSLVLPI
protein stability index: 1.9
--
seq string: INRADYCPECYGDNPANRSLVLPW
protein stability index: 2.69
--
seq string: INRADYCPECAPDNPANRSLVLPW
protein stability index: 1.96
--
seq string: QNRADYCPECYPDNPANRSLVLPW
protein stability index: 2.26
--
seq string: INRADYCPECYPDNIANRSLVLPW
protein stability index: 2.29
--
seq string: INRADYCPECYPDNPRNRSLVLPW
protein stability index: 1.67
--
seq string: INRADYCPECYPDNPANRSLVLPV
protein stability index: 2.53
--
seq string: SNRADYCPECYPDNPANRSLVLPW
protein stability index: 2.14
--
seq string: INRADYCQECYPDNPANRSLVLPW
protein stability index: 2.48
--
seq string: INRADYCPECYPDNPANRSMVLPW
protein stability index: 2.67
--
seq string: INRADYCPECYPDNPANRSLVDPW
protein stability index: 2.15
--
seq string: INRADYCPECYPDNPANRSLDLPW
protein stability index: 2.43
--
seq string: INRADYCPECLPDNPANRSLVLPW
protein stability index: 1.83
--
seq string: INRADYCPECYPLNPANRSLVLPW
protein stability index: 2.53
--
seq string: IARADYCPECYPDNPANRSLVLPW
protein stability index: 1.65
--
seq string: INRADYCPECYPDNPAKRSLVLPW
protein stability index: 1.8
--
seq string: INRADYCTECYPDNPANRSLVLPW
protein stability index: 1.82
--
seq string: INRADYCPECYPPNPANRSLVLPW
protein stability index: 2.11
--
seq string: INRADYCPECYPQNPANRSLVLPW
protein stability index: 2.28
--
seq string: INRADYCPECYPDNPVNRSLVLPW
protein stability index: 1.85
--
seq string: INRADYCPECTPDNPANRSLVLPW
protein stability index: 2.32
--
seq string: INRADYCPECYPDNPANRSSVLPW
protein stability index: 2.28
--
seq string: INRADYCPECHPDNPANRSLVLPW
protein stability index: 2.22
--
seq string: INRDDYCPECYPDNPANRSLVLPW
protein stability index: 1.95
--
seq string: INRADYCPECYPDNPQNRSLVLPW
protein stability index: 2.23
--
seq string: INRADYCPECYPDNPANRSLVLPR
protein stability index: 1.77
--
seq string: INRADYCPECYPDNPAPRSLVLPW
protein stability index: 1.89
--
seq string: INRADYCPECYPDNPANRSLYLPW
protein stability index: 1.99
--
seq string: INRADGCPECYPDNPANRSLVLPW
protein stability index: 2.65
--
seq string: INRAVYCPECYPDNPANRSLVLPW
protein stability index: 2.21
--
seq string: INRADHCPECYPDNPANRSLVLPW
protein stability index: 3.04
--
seq string: IIRADYCPECYPDNPANRSLVLPW
protein stability index: 1.7
--
seq string: INRADYCVECYPDNPANRSLVLPW
protein stability index: 1.95
--
seq string: INRADYCPECYPDTPANRSLVLPW
protein stability index: 1.6
--
seq string: INRADYCPECYPMNPANRSLVLPW
protein stability index: 2.25
--
seq string: INRADYCPECYPDYPANRSLVLPW
protein stability index: 2.08
--
seq string: INRAHYCPECYPDNPANRSLVLPW
protein stability index: 2.09
--
seq string: INRADYCPSCYPDNPANRSLVLPW
protein stability index: 1.86
--
seq string: INRAWYCPECYPDNPANRSLVLPW
protein stability index: 1.91
--
seq string: INRADYCPECYPDNPANRSLVPPW
protein stability index: 2.93
--
seq string: INRADYCPECSPDNPANRSLVLPW
protein stability index: 2.69
--
seq string: INRADYCIECYPDNPANRSLVLPW
protein stability index: 1.5
--
seq string: WNRADYCPECYPDNPANRSLVLPW
protein stability index: 1.33
--
seq string: INRADYCPECYPFNPANRSLVLPW
protein stability index: 1.56
--
seq string: INRADYCPECYPDNPANRNLVLPW
protein stability index: 1.8
--
seq string: INRADYCPECYKDNPANRSLVLPW
protein stability index: 2.1
--
seq string: IPRADYCPECYPDNPANRSLVLPW
protein stability index: 2.92
--
seq string: INRADYCPECYPDAPANRSLVLPW
protein stability index: 2.31
--
seq string: INRADYCPEGYPDNPANRSLVLPW
protein stability index: 2.81
--
seq string: INRADYCPECYPDNPANRILVLPW
protein stability index: 1.72
--
seq string: INRADICPECYPDNPANRSLVLPW
protein stability index: 2.24
--
seq string: INRADYCPECYPDNQANRSLVLPW
protein stability index: 2.1
